B1: PTPLAD1 (parent)
chain: YINFRHLYKQRRRRYGQKKKKIH

# Variants of: B1
# METHOD SUMMARY: protein stability index of a GFP-peptide fusion (GPS, HEK-293T) (PSI 1-6); higher = more stable;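 also: lentivirally expressed fusions sorted by FACS into six bins by GFP to DsRed ratio, PSI derived from sequencing read proportions per bin multiplied by bin number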
# ASSAY SETUP: c terminus: native

>  <POLYMER SEQUENCE>
YINFRHLYKQRRRRYGQAKKKIH [K18A]

>  <protein stability index>
2.15

$$$$
>  <POLYMER SEQUENCE>
YINFRHYYKQRRRRYGQKKKKIH [L7Y]

>  <protein stability index>
2.29

$$$$
>  <POLYMER SEQUENCE>
YPNFRHLYKQRRRRYGQKKKKIH [I2P]

>  <protein stability index>
2.9

$$$$
>  <POLYMER SEQUENCE>
YINFRHSYKQRRRRYGQKKKKIH [L7S]

>  <protein stability index>
2.04

$$$$
>  <POLYMER SEQUENCE>
YFNFRHLYKQRRRRYGQKKKKIH [I2F]

>  <protein stability index>
3.06

$$$$
>  <POLYMER SEQUENCE>
YINIRHLYKQRRRRYGQKKKKIH [F4I]

>  <protein stability index>
2.43

$$$$
>  <POLYMER SEQUENCE>
YINFRHLYKQRRRRFGQKKKKIH [Y15F]

>  <protein stability index>
1.53

$$$$
>  <POLYMER SEQUENCE>
YINFRHLYKQRRRRYGQLKKKIH [K18L]

>  <protein stability index>
2.42

$$$$
>  <POLYMER SEQUENCE>
YINFRHLYKQRRPRYGQKKKKIH [R13P]

>  <protein stability index>
3.64

$$$$
>  <POLYMER SEQUENCE>
YINFRHLYKQRRRFYGQKKKKIH [R14F]

>  <protein stability index>
2.16

$$$$
>  <POLYMER SEQUENCE>
YINFRHLYVQRRRRYGQKKKKIH [K9V]

>  <protein stability index>
1.91

$$$$
>  <POLYMER SEQUENCE>
YINFRHLYKQRRRYYGQKKKKIH [R14Y]

>  <protein stability index>
1.78

$$$$
>  <POLYMER SEQUENCE>
YINQRHLYKQRRRRYGQKKKKIH [F4Q]

>  <protein stability index>
2.77

$$$$
>  <POLYMER SEQUENCE>
YINFRHLYKQRRRRYGQKKKKMH [I22M]

>  <protein stability index>
2.23

$$$$
>  <POLYMER SEQUENCE>
TINFRHLYKQRRRRYGQKKKKIH [Y1T]

>  <protein stability index>
2.25

$$$$
>  <POLYMER SEQUENCE>
YINFRHLYNQRRRRYGQKKKKIH [K9N]

>  <protein stability index>
2.8

$$$$
>  <POLYMER SEQUENCE>
YINFRHLYKQFRRRYGQKKKKIH [R11F]

>  <protein stability index>
1.73

$$$$
>  <POLYMER SEQUENCE>
YINFRHLYKQRRRRYGTKKKKIH [Q17T]

>  <protein stability index>
2.54

$$$$
>  <POLYMER SEQUENCE>
YINFRHLYKQRRDRYGQKKKKIH [R13D]

>  <protein stability index>
1.37

$$$$
>  <POLYMER SEQUENCE>
YKNFRHLYKQRRRRYGQKKKKIH [I2K]

>  <protein stability index>
2.27

$$$$
>  <POLYMER SEQUENCE>
YHNFRHLYKQRRRRYGQKKKKIH [I2H]

>  <protein stability index>
1.29

$$$$
>  <POLYMER SEQUENCE>
YINFRTLYKQRRRRYGQKKKKIH [H6T]

>  <protein stability index>
2.02

$$$$

Taken from the supplement of paper PMC10567573.
